molecular target: HDAC enzyme; test: Inhibition of Histone Deacetylase Enzymatic Activity (Assay Examples 1 and 2); conditions: HDAC isoform not specified; fluorogenic Boc-Lys(Ac)-AMC or Boc-Lys(trifluoroacetyl)-AMC substrate
pIC50: −log10 of the molar value.
Entries and their measured pIC50 follow.

Some solved entries appear below for comparison.
> print(dat)
                        structure.as.smiles  assayed.target  measured.value
1  NS(=O)(=O)NCCCCCC(=O)Nc1cc(OCc2ccccn2)cc2cccnc12     HDAC enzyme          ≥ 6.70
2  NS(=O)(=O)NCCCC[C@H](NC(=O)OCc1ccccc1)C(=O)Nc1nc(-c2ccc(F)cc2)cs1     HDAC enzyme    6.30 to 6.70
3  NS(=O)(=O)NCCCC[C@H](NC(=O)Nc1ccccc1)C(=O)Nc1cccc2cccnc12     HDAC enzyme          ≥ 6.70

Moving on to another molecule below.
Req: Can you share its pIC50? I mean this molecule: `NS(=O)(=O)NCCCC[C@H](NC(=O)OCc1ccccc1)c1csc(-c2ccc(Br)cc2)n1`
Resp: 6.30 to 6.70
